- assay-comment: Human pregnane X receptor (PXR) small molecule agonists, qHTS cell viability counter screen (AID 1346977); note: nearly all actives have a fitted effect of over 50% in size
- condition: PXR-Luc HepG2 viability, CellTiter-Fluor, 24 h; series mostly up to 92.4 µM
Records with an inconclusive call do not appear. Activity calls are given as the source filed them. Calls come from the whole dose curve; as a rule, active = well fitted cell-killing curve with a large enough effect in the repeat runs; inconclusive = weak or mixed curves, or effect the other way; inactive = flat fitted curve, though single readings scatter.
Outcome codes: active, inactive

{"columns": ["compound", "assigned-label"],
 "data": [
  ["C=CC(=O)OCC(C)C", "inactive"],
  ["CCOP(=S)(OCC)Oc1cc(Cl)c(Br)cc1Cl", "inactive"],
  ["CC1C(=O)C[C@]2(C(C)C)C[C@H]12 (stereo partly specified)", "inactive"],
  ["OCCCBr", "inactive"],
  ["Cc1ccc2ccccc2c1", "inactive"],
  ["CC(C)(CCl)C(=O)Cl", "inactive"],
  ["O=Cc1ccc2c(c1)OCO2", "inactive"],
  ["S=C=NCc1ccccc1", "inactive"],
  ["COc1cc(CC(C)N)cc2c1OCO2 (stereo unspecified)", "inactive"],
  ["O=C(O)c1ccccc1C(=O)Nc1cccc2ccccc12", "inactive"],
  ["O=C(Nc1ccccc1)Nc1ccnc(Cl)c1", "active"]
]}
